Taken from paper PMC9578445.

measurementNotes: Plasma exposure in rat CV/R assay
Format: in vivo
conditionDescription: male, CD, rat, plasma, iv, 30 mg/kg, rat, IV infusion, 30 mg/kg, 15 min; read-out: Total [plasma]

>  <chemicalSmiles>
C[C@H](c1cccc2c1CNCC2)n1c(=O)oc2cc(S(=O)(=O)Nc3ncns3)ccc21

>  <concentration at 15 min, µM>
108

$$$$
>  <chemicalSmiles>
O=S(=O)(Nc1nccs1)c1cc(Cl)c(NCCCCNC[C@H]2CCCN2)cc1F

>  <concentration at 15 min, µM>
230

$$$$
>  <chemicalSmiles>
N#Cc1cc(S(=O)(=O)Nc2cscn2)ccc1Oc1ccc(Cl)cc1-c1ccnn1C1CNC1

>  <concentration at 15 min, µM>
38.2

$$$$

====

systemName: Pgp (Homo sapiens)
Sequence (P08183 whole entry): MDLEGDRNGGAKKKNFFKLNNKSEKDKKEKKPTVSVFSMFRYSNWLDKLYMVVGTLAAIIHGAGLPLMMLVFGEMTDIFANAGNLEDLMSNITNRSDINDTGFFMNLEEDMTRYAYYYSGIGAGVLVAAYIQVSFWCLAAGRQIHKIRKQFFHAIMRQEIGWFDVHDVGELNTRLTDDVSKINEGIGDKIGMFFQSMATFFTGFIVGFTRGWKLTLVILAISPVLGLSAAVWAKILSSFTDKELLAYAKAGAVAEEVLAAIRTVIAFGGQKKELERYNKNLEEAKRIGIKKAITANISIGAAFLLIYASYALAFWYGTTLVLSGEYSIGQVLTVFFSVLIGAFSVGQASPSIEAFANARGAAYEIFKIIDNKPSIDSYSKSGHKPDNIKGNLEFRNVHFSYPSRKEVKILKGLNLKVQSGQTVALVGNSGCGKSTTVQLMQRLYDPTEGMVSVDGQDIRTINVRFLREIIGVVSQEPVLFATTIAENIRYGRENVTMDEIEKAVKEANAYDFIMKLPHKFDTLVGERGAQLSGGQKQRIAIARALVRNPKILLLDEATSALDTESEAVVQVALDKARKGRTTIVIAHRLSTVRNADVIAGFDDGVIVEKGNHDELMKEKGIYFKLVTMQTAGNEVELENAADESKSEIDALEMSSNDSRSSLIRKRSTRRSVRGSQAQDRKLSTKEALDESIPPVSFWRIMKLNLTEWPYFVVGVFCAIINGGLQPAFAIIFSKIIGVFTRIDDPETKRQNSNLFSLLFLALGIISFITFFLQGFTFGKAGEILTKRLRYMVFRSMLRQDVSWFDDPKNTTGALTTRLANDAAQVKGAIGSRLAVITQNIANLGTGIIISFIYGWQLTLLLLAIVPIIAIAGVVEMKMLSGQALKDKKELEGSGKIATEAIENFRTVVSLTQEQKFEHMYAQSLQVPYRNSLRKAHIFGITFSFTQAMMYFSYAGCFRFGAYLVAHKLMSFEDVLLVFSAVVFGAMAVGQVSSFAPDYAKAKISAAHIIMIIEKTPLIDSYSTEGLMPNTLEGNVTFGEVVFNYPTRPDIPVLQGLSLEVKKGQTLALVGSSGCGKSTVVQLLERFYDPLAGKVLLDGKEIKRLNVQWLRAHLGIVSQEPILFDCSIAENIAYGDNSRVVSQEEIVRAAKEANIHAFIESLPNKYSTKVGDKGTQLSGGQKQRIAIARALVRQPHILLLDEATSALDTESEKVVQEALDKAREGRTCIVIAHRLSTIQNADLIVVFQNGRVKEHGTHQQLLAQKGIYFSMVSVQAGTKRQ
measurementNotes: Permeability BA/AB ratio (Pgp transport)
Type: in vitro ADME
conditionDescription: not told
// reported efflux ratio per item

>  <chemicalSmiles>
C[C@H](c1cccc2c1CNCC2)n1c(=O)oc2cc(S(=O)(=O)Nc3ncns3)ccc21

>  <efflux ratio>
~1.03

$$$$
>  <chemicalSmiles>
O=S(=O)(Nc1nccs1)c1cc(Cl)c(NCCCCNC[C@H]2CCCN2)cc1F

>  <efflux ratio>
~1.1

$$$$
>  <chemicalSmiles>
N#Cc1cc(S(=O)(=O)Nc2cscn2)ccc1Oc1ccc(Cl)cc1-c1ccnn1C1CNC1

>  <efflux ratio>
< 999

$$$$

====

measurementNotes: Plasma exposure in phrenic nerve activity assay
Type: in vivo
conditionDescription: CD, rat, plasma, intravenous, 60 mg/kg, 30 min, read-out: Total [plasma]

>  <chemicalSmiles>
N#Cc1cc(S(=O)(=O)Nc2cscn2)ccc1Oc1ccc(Cl)cc1-c1ccnn1C1CNC1

>  <concentration at 30 min, µM>
86.2

$$$$

====

measurementNotes: Plasma exposure in phrenic nerve activity assay
Format: in vivo
conditionDescription: CD, rat, plasma, intravenous, 60 mg/kg, 15 min, read-out: Total [plasma]

>  <chemicalSmiles>
N#Cc1cc(S(=O)(=O)Nc2cscn2)ccc1Oc1ccc(Cl)cc1-c1ccnn1C1CNC1

>  <concentration at 15 min [µM]>
82.7

$$$$

====

measurementNotes: Plasma exposure in phrenic nerve activity assay
Format: in vivo
conditionDescription: CD, rat, plasma, intravenous, 10 mg/kg, 30 min, read-out: Total [plasma]
quantityMeasured: concentration at 30 min (µM)

>  <chemicalSmiles>
O=S(=O)(Nc1ncns1)c1cc(F)c(NCC23CCCN2CCC3)cc1F

>  <quantityMeasured>
concentration at 30 min

>  <result>
61.6

$$$$

====

measurementNotes: Plasma exposure in rat CV/R assay
Format: in vivo
conditionDescription: CD, rat, plasma, iv, 10 mg/kg, rat, IV infusion, 10 mg/kg, 30 min; read-out: Total [plasma]
quantityMeasured: concentration at 30 min (µM)

>  <chemicalSmiles>
C[C@H](c1cccc2c1CNCC2)n1c(=O)oc2cc(S(=O)(=O)Nc3ncns3)ccc21

>  <unitAbbrev>
µM

>  <result>
43.5

$$$$

====

measurementNotes: Plasma exposure in rat CV/R assay
Assay type: in vivo
conditionDescription: CD, rat, plasma, iv, 10 mg/kg, rat, IV infusion, 10 mg/kg, 15 min; read-out: Unbound [plasma]
Entries and their concentration at 15 min

>  <chemicalSmiles>
O=S(=O)(Nc1ncns1)c1cc(F)c(NCC23CCCN2CCC3)cc1F

>  <concentration at 15 min, µM>
15

$$$$
>  <chemicalSmiles>
C[C@H](c1cccc2c1CNCC2)n1c(=O)oc2cc(S(=O)(=O)Nc3ncns3)ccc21

>  <concentration at 15 min, µM>
3.8

$$$$

====

measurementNotes: Plasma exposure in phrenic nerve activity assay
Assay type: in vivo
conditionDescription: CD, rat, plasma, intravenous, 10 mg/kg, 15 min, read-out: Total [plasma]

>  <chemicalSmiles>
O=S(=O)(Nc1ncns1)c1cc(F)c(NCC23CCCN2CCC3)cc1F

>  <unitAbbrev>
µM

>  <concentration at 15 min>
55.3

$$$$

====

measurementNotes: Plasma exposure in rat CV/R assay
Format: in vivo
conditionDescription: male, CD, rat, plasma, iv, 60 mg/kg, rat, IV infusion, 60 mg/kg, 15 min; read-out: Unbound [plasma]

>  <chemicalSmiles>
N#Cc1cc(S(=O)(=O)Nc2cscn2)ccc1Oc1ccc(Cl)cc1-c1ccnn1C1CNC1

>  <concentration at 15 min / µM>
8.7

$$$$

====

measurementNotes: Plasma exposure in rat CV/R assay
Format: in vivo
conditionDescription: CD, rat, plasma, iv, 14 mg/kg, rat, IV infusion, 14 mg/kg, 30 min; read-out: Unbound [plasma]
quantityMeasured: concentration at 30 min (µM)

>  <molecule>
O=S(=O)(Nc1nccs1)c1cc(Cl)c(NCCCCNC[C@H]2CCCN2)cc1F [SSCI-1]

>  <result>
7

$$$$

====

measurementNotes: Plasma exposure in rat CV/R assay
Assay type: in vivo
conditionDescription: male, CD, rat, plasma, iv, 60 mg/kg, rat, IV infusion, 60 mg/kg, 15 min; read-out: Total [plasma]
quantityMeasured: concentration at 15 min (µM)

>  <chemicalSmiles>
N#Cc1cc(S(=O)(=O)Nc2cscn2)ccc1Oc1ccc(Cl)cc1-c1ccnn1C1CNC1

>  <quantityMeasured>
concentration at 15 min

>  <result>
67.7

$$$$

====

measurementNotes: Plasma exposure in rat CV/R assay
Assay type: in vivo
conditionDescription: male, CD, rat, plasma, iv, 3 mg/kg, rat, IV infusion, 3 mg/kg, 15 min; read-out: Total [plasma]

>  <chemicalSmiles>
O=S(=O)(Nc1ncns1)c1cc(F)c(NCC23CCCN2CCC3)cc1F

>  <concentration at 15 min [µM]>
11.4

$$$$

====

measurementNotes: Plasma exposure in rat CV/R assay
Type: in vivo
conditionDescription: male, CD, rat, plasma, iv, 7 mg/kg, rat, IV infusion, 7 mg/kg, 30 min; read-out: Total [plasma]

>  <compound>
O=S(=O)(Nc1nccs1)c1cc(Cl)c(NCCCCNC[C@H]2CCCN2)cc1F [SSCI-1]

>  <concentration at 30 min>
76.7 µM

$$$$

====

measurementNotes: Plasma exposure in rat CV/R assay
Assay type: in vivo
conditionDescription: male, CD, rat, plasma, iv, 30 mg/kg, rat, IV infusion, 30 mg/kg, 30 min; read-out: Unbound [plasma]
quantityMeasured: concentration at 30 min (µM)

>  <compound>
O=S(=O)(Nc1nccs1)c1cc(Cl)c(NCCCCNC[C@H]2CCCN2)cc1F [SSCI-1]

>  <result>
16.9

$$$$
>  <compound>
N#Cc1cc(S(=O)(=O)Nc2cscn2)ccc1Oc1ccc(Cl)cc1-c1ccnn1C1CNC1 [SSCI-5]

>  <result>
5.4

$$$$

====

measurementNotes: Plasma exposure in rat CV/R assay
Type: in vivo
conditionDescription: male, CD, rat, plasma, iv, 7 mg/kg, rat, IV infusion, 7 mg/kg, 15 min; read-out: Unbound [plasma]

>  <chemicalSmiles>
O=S(=O)(Nc1nccs1)c1cc(Cl)c(NCCCCNC[C@H]2CCCN2)cc1F

>  <unitAbbrev>
µM

>  <concentration at 15 min>
3.6

$$$$

====

systemName: Adrenergic α2C (Homo sapiens, UniProt P18825)
Sequence (P18825 1-462): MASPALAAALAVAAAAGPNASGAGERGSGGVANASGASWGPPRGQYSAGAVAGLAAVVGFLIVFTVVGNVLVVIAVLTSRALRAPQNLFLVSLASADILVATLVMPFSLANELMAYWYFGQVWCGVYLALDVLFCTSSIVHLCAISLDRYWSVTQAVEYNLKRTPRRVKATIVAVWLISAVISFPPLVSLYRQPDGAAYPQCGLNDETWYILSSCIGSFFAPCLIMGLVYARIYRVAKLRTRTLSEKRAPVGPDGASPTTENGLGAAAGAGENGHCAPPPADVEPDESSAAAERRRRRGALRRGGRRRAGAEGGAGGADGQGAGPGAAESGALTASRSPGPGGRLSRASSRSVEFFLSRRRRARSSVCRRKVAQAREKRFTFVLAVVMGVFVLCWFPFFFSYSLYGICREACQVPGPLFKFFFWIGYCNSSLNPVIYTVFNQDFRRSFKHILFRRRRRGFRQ

>  <chemicalSmiles>
O=S(=O)(Nc1nccs1)c1cc(Cl)c(NCCCCNC[C@H]2CCCN2)cc1F

>  <Ki>
> 10 µM

$$$$

====

measurementNotes: Plasma exposure in rat CV/R assay
Assay type: in vivo
conditionDescription: CD, rat, plasma, iv, 14 mg/kg, rat, IV infusion, 14 mg/kg, 30 min; read-out: Total [plasma]

>  <compound>
O=S(=O)(Nc1nccs1)c1cc(Cl)c(NCCCCNC[C@H]2CCCN2)cc1F [SSCI-1]

>  <concentration at 30 min / µM>
104

$$$$

====

systemName: Nav1.6 (Homo sapiens, UniProt Q9UQD0)
Sequence (Q9UQD0 whole entry): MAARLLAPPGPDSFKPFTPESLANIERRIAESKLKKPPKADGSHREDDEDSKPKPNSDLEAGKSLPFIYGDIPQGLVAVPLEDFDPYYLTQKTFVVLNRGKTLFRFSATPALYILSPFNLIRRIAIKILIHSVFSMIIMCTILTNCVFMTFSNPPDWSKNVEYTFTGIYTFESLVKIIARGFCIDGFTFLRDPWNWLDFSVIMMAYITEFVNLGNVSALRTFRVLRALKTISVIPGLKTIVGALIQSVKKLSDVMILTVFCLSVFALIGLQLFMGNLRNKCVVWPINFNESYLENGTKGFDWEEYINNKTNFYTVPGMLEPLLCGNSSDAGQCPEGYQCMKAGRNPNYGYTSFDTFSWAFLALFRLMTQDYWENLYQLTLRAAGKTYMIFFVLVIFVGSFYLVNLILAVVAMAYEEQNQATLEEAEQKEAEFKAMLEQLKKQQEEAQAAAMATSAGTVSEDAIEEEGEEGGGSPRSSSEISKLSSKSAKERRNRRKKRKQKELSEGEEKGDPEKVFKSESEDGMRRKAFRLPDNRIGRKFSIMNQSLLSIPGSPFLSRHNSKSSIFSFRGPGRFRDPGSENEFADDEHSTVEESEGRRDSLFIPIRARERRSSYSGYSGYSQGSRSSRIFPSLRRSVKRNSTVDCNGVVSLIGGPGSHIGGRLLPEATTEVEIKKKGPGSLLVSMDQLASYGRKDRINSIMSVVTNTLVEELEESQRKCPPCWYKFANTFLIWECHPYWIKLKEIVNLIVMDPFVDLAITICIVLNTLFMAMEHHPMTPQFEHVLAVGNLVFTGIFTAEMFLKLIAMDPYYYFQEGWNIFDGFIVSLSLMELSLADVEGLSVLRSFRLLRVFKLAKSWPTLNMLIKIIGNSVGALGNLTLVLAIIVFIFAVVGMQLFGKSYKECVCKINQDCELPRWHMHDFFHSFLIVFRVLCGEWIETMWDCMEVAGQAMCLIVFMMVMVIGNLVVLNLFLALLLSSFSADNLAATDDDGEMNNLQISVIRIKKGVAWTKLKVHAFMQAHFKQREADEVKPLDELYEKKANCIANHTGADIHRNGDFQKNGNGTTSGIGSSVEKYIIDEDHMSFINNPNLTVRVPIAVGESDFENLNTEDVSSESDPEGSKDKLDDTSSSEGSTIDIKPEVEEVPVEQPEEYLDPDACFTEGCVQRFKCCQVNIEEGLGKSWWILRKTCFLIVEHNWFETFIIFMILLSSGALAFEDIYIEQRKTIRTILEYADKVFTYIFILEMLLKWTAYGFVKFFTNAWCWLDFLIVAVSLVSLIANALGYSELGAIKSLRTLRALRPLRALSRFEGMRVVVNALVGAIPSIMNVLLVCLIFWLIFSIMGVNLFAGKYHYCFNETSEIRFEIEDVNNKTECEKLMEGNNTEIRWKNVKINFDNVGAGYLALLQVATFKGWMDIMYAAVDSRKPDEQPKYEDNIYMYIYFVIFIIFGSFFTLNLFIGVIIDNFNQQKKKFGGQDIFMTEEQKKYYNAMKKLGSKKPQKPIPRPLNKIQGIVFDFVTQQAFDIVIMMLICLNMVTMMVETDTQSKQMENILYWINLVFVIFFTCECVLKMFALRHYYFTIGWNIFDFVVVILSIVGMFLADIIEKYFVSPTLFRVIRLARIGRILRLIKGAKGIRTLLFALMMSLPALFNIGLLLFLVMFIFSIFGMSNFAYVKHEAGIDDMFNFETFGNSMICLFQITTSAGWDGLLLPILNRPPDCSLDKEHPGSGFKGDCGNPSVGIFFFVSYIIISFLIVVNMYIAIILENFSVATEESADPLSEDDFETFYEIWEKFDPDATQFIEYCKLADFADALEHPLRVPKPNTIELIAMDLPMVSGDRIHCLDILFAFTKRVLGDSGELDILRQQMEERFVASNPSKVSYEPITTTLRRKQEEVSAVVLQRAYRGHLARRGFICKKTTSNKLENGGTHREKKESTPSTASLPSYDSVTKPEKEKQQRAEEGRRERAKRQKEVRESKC
measurementNotes: PatchXpress automated patch clamp, hyperpolarized-state protocol
Assay type: cell-based
Design: expressed in transfected cells
conditionDescription: HEK 293 cells, hyperpolarized protocol

>  <compound>
O=S(=O)(Nc1nccs1)c1cc(Cl)c(NCCCCNC[C@H]2CCCN2)cc1F [SSCI-1]

>  <qual>
>

>  <IC50 / nM>
30000

$$$$
>  <compound>
N#Cc1cc(S(=O)(=O)Nc2cscn2)ccc1Oc1ccc(Cl)cc1-c1ccnn1C1CNC1 [SSCI-5]

>  <qual>
=

>  <IC50 / nM>
4610

$$$$
>  <compound>
COc1ccc(CCC(c2cccc3c2CNCC3)n2c(=O)oc3cc(S(=O)(=O)Nc4ncns4)c(F)cc32)cc1 (stereo not shown) [SSCI-6]

>  <qual>
=

>  <IC50 / nM>
23

$$$$
>  <compound>
C[C@H](c1cccc2c1CNCC2)n1c(=O)oc2cc(S(=O)(=O)Nc3ncns3)ccc21 [SSCI-3]

>  <qual>
=

>  <IC50 / nM>
1110

$$$$
